Below, each of the compounds is paired with its reported inhibition at 1 µM value.
biological target: CDK4-cyclinD1 (Homo sapiens); test: KINOMEscan competition binding; settings: read-out: %Inh CDK4-cyclinD1
Sequence (P11802 whole entry): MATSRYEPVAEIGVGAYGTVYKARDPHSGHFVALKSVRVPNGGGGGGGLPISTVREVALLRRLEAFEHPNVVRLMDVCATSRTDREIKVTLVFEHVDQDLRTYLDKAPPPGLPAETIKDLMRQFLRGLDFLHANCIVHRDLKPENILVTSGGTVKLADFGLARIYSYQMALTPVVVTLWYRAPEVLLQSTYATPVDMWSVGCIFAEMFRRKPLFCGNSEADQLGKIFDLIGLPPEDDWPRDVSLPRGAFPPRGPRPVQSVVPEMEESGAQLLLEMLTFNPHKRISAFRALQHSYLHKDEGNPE
Sequence (P24385 whole entry partner): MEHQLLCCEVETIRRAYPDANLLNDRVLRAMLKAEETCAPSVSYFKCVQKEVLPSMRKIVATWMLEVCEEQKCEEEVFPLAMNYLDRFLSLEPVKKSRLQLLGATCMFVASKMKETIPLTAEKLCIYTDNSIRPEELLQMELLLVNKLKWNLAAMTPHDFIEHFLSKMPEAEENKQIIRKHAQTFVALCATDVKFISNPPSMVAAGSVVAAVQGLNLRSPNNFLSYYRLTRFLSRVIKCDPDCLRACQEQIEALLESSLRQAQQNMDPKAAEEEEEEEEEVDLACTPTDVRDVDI
Field format: number, assumed %, no unit text.

**Query** Item CS(=O)(=O)Cc1ccc(Nc2nccc(-c3c(-c4cccc(NC(=O)C5CCCCC5)c4)nn4ncccc34)n2)cc1 [UNC10225159A] with CDK4-cyclinD1 (Homo sapiens) - inhibition at 1 µM?
**Result** 15

----------
molecular target: CDK3 (Homo sapiens); assay: KINOMEscan competition binding; settings: read-out: %Inh CDK3
Sequence (Q00526 whole entry): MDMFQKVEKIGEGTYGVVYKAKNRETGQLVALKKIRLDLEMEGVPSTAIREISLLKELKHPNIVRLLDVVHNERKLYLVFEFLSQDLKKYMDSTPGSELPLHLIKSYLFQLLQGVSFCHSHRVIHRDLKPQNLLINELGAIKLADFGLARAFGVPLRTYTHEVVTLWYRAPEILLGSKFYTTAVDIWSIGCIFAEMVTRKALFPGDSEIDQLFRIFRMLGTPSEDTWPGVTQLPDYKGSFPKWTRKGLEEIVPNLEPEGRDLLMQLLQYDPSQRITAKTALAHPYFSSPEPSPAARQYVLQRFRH
Recorded Metric: inhibition at 1 µM (%)
Field format: number, assumed %, no unit text.

Example results:
Compound: Cn1cc(-c2cnc(N)c3c(-c4ccc5c(c4)CCN5C(=O)Cc4ccccc4)csc23)cn1 [UNC10225012A]
inhibition at 1 µM [%]: 1

Compound: CS(=O)(=O)Cc1ccc(Nc2nccc(-c3c(-c4cccc(NC(=O)C5CCCCC5)c4)nn4ncccc34)n2)cc1 [UNC10225159A]
inhibition at 1 µM [%]: 0

Compound: O=c1cc(N2CCOCC2)nc2n(Cc3cccc(Cl)c3Cl)c(C3CC3)nn12 [UNC10225469A]
inhibition at 1 µM [%]: 5

Compound: Cc1ccc(NC(=O)Nc2cccc(C(F)(F)F)c2)cc1 [UNC10225187A]
inhibition at 1 µM [%]: 0

**Query** # lookup: inhibition at 1 µM of COc1cccc(OC)c1C(=O)Nc1cccc(-c2nn3ccccc3c2-c2ccnc(Nc3cccc(F)c3)n2)c1 [UNC10225310A]
**Result** 0
